test system: HCI-010 (organoid from a breast cancer xenograft); assay: CTG-3D luminescence at 96 h relative to day-0 seeding control (ratio to day 0); higher = more growth / less cytotoxicity; PDxO 3D drug screen, 96 h, CTG-3D normalised to day-0 seeding control.; settings: 0.005 µM; days in culture: 103
reportedMetric: CTG-3D luminescence at 96 h
Answer with the value's number alone.

Example cases with answers are listed next.
CN(Cc1cnc2nc(N)nc(N)c2n1)c1ccc(C(=O)N[C@@H](CCC(=O)O)C(=O)O)cc1 [methotrexate]	4.03
CC(C)(C(=O)NCC(F)(F)C(F)(F)F)C(=O)N[C@@H]1C(=O)Nc2ccccc2-c2ccccc21	2.93
CNC(=O)c1cccc(-c2ccc3c(N4CCOC[C@@H]4C)nc(N4CCOC[C@@H]4C)nc3n2)c1	3.25

Exam item: Suppose we examine the compound C=CCn1c(=O)c2cnc(Nc3ccc(N4CCN(C)CC4)cc3)nc2n1-c1cccc(C(C)(C)O)n1 ; what CTG-3D luminescence at 96 h value has been reported?
Marked response: 3.59

---

Reported CTG-3D luminescence at 96 h values for a set of compounds
test system: HCI-015 (organoid from a triple-negative breast cancer xenograft); assay: CTG-3D luminescence at 96 h relative to day-0 seeding control (ratio to day 0); higher = more growth / less cytotoxicity; PDxO 3D drug screen, 96 h, CTG-3D normalised to day-0 seeding control.; conditions: 0.00025 µM; days in culture: 191
Answer with the value's number alone.

Nc1ccn([C@@H]2O[C@H](CO)[C@@H](O)C2(F)F)c(=O)n1 [gemcitabine]	1.52
CS(=O)(=O)c1ccc(C(=O)Nc2ccc(Cl)c(-c3ccccn3)c2)c(Cl)c1 [vismodegib]	1.16
COc1cc2c(Oc3ccc4[nH]c(C)cc4c3F)ncnc2cc1OCCCN1CCCC1 [cediranib]	1.61

Exam item: Suppose we examine the compound Cc1cc(Nc2ncc(Cl)c(Nc3ccccc3S(=O)(=O)C(C)C)n2)c(OC(C)C)cc1C1CCNCC1 [ceritinib] ; what CTG-3D luminescence at 96 h value has been reported?
Marked response: 1.47

---

Reported CTG-3D luminescence at 96 h values for a set of compounds
tested on: HCI-008 (organoid from a HER2-enriched breast cancer xenograft); test: CTG-3D luminescence at 96 h relative to day-0 seeding control (ratio to day 0); higher = more growth / less cytotoxicity; PDxO 3D drug screen (set 2), 96 h, CTG-3D normalised to day-0 seeding control.; conditions: 625 fM; days in culture: 382
Answer with the value's number alone.

Exam item: Suppose we examine the compound CCOc1ccn(-c2ccc(F)cc2)c(=O)c1C(=O)Nc1ccc(Oc2ccnc(N)c2Cl)c(F)c1 ; what CTG-3D luminescence at 96 h value has been reported?
Marked response: 1.52

---

system: HCI-001 (organoid from a triple-negative breast cancer xenograft); assay: CTG-3D luminescence at 96 h relative to day-0 seeding control (ratio to day 0); higher = more growth / less cytotoxicity; PDxO 3D drug screen, 96 h, CTG-3D normalised to day-0 seeding control.; conditions: 0.00025 µM; days in culture: 364
Reported CTG-3D luminescence at 96 h values for a set of compounds
Answer with the value's number alone.

COc1cccc2c1C(=O)c1c(O)c3c(c(O)c1C2=O)C[C@@](O)(C(=O)CO)C[C@@H]3O[C@H]1C[C@H](N)[C@H](O)[C@H](C)O1 [doxorubicin]	1.06
CC1(C)CCC(c2ccc(Cl)cc2)=C(CN2CCN(c3ccc(C(=O)NS(=O)(=O)c4ccc(N[C@H](CCN5CCOCC5)CSc5ccccc5)c(S(=O)(=O)C(F)(F)F)c4)cc3)CC2)C1 [navitoclax]	1.16
CC(C)n1nc(-c2ccc3oc(N)nc3c2)c2c(N)ncnc21 [sapanisertib]	1.12

Exam item: Suppose we examine the compound COc1cc2c(Oc3ccc4[nH]c(C)cc4c3F)ncnc2cc1OCCCN1CCCC1 [cediranib] ; what CTG-3D luminescence at 96 h value has been reported?
Marked response: 1.06

Exam item: Suppose we examine the compound CC(=O)O[C@H]1C(=O)[C@@]2(C)[C@H]([C@H](OC(=O)c3ccccc3)[C@]3(O)C[C@H](OC(=O)[C@H](O)[C@@H](NC(=O)c4ccccc4)c4ccccc4)C(C)=C1C3(C)C)[C@]1(OC(C)=O)CO[C@@H]1C[C@@H]2O [paclitaxel] ; what CTG-3D luminescence at 96 h value has been reported?
Marked response: 1.15

Exam item: Suppose we examine the compound NC(=O)c1cccc2cn(-c3ccc([C@@H]4CCCNC4)cc3)nc12 [niraparib] ; what CTG-3D luminescence at 96 h value has been reported?
Marked response: 1.28

Exam item: Suppose we examine the compound CS(=O)(=O)c1ccc(C(=O)Nc2ccc(Cl)c(-c3ccccn3)c2)c(Cl)c1 [vismodegib] ; what CTG-3D luminescence at 96 h value has been reported?
Marked response: 1.26

Exam item: Suppose we examine the compound CC(C)(C(=O)NCC(F)(F)C(F)(F)F)C(=O)N[C@@H]1C(=O)Nc2ccccc2-c2ccccc21 ; what CTG-3D luminescence at 96 h value has been reported?
Marked response: 1.25

---

tested on: HCI-001; assay: CTG-3D luminescence at 96 h relative to day-0 seeding control (ratio to day 0); higher = more growth / less cytotoxicity; PDxO 3D drug screen, 96 h, CTG-3D normalised to day-0 seeding control.; details: 0.005 µM; days in culture: 346
Reported CTG-3D luminescence at 96 h values for a set of compounds
Answer with the value's number alone.

CS(=O)(=O)c1ccc(C(=O)Nc2ccc(Cl)c(-c3ccccn3)c2)c(Cl)c1	1.23
COc1cc2c(Oc3ccc4[nH]c(C)cc4c3F)ncnc2cc1OCCCN1CCCC1	1.25

Next up:
Exam item: Suppose we examine the compound CCN(c1cc(C#CCN2CCOCC2)cc(C(=O)NCc2c(C)cc(C)[nH]c2=O)c1C)[C@H]1CC[C@H](N(C)CCOC)CC1 ; what CTG-3D luminescence at 96 h value has been reported?
Marked response: 1.21

---

system: HCI-001; assay: CTG-3D luminescence at 96 h relative to day-0 seeding control (ratio to day 0); higher = more growth / less cytotoxicity; PDxO 3D drug screen, 96 h, CTG-3D normalised to day-0 seeding control.; conditions: 10 µM; days in culture: 260
reportedMetric: CTG-3D luminescence at 96 h
Answer with the value's number alone.

Example cases with answers are listed next.
C[C@@H]1COCCN1c1cc(C2([S@](C)(=N)=O)CC2)nc(-c2cc[nH]c3nccc2-3)n1	0.492
O=C(c1ccc(F)c(F)c1Nc1ccc(I)cc1F)N1CC(O)([C@@H]2CCCCN2)C1	1.5
CNC(=O)c1cccc(-c2ccc3c(N4CCOC[C@@H]4C)nc(N4CCOC[C@@H]4C)nc3n2)c1	0.89
CCc1c2c(nc3ccc(O)cc13)-c1cc3c(c(=O)n1C2)COC(=O)[C@]3(O)CC	0.0569
NC(=O)c1cccc2cn(-c3ccc([C@@H]4CCCNC4)cc3)nc12	1.92

Exam item: Suppose we examine the compound C=CC(=O)N1CCC[C@@H](n2nc(-c3ccc(Oc4ccccc4)cc3)c3c(N)ncnc32)C1 ; what CTG-3D luminescence at 96 h value has been reported?
Marked response: 1.12

Exam item: Suppose we examine the compound Nc1ccn([C@@H]2O[C@H](CO)[C@@H](O)C2(F)F)c(=O)n1 ; what CTG-3D luminescence at 96 h value has been reported?
Marked response: 0.522

Exam item: Suppose we examine the compound C[C@]12CC[C@@H]3c4ccc(O)cc4C[C@@H](CCCCCCCCC[S+]([O-])CCCC(F)(F)C(F)(F)F)[C@H]3[C@@H]1CC[C@@H]2O (stereo partly drawn) ; what CTG-3D luminescence at 96 h value has been reported?
Marked response: 1.46

---

Reported CTG-3D luminescence at 96 h values for a set of compounds
tested on: HCI-010; test: CTG-3D luminescence at 96 h relative to day-0 seeding control (ratio to day 0); higher = more growth / less cytotoxicity; PDxO 3D drug screen, 96 h, CTG-3D normalised to day-0 seeding control.; conditions: 0.00025 µM; days in culture: 65
Answer with the value's number alone.

Example cases with answers are listed next.
O=C(O)C1(C(=O)O)CCC1.[NH2-].[NH2-].[Pt+2] [carboplatin]	1.56
CNC(=O)c1cccc(-c2ccc3c(N4CCOC[C@@H]4C)nc(N4CCOC[C@@H]4C)nc3n2)c1 [vistusertib]	1.73
COc1cc2c(Oc3ccc4[nH]c(C)cc4c3F)ncnc2cc1OCCCN1CCCC1 [cediranib]	1.65

Exam item: Under HCI-010: CTG-3D luminescence at 96 h value of Cc1nc(-c2cn3c(n2)-c2ccc(-c4cnn(C(C)(C)C(N)=O)c4)cc2OCC3)n(C(C)C)n1 [taselisib] ?
Marked response: 1.84

Exam item: Under HCI-010: CTG-3D luminescence at 96 h value of Nc1ccn([C@@H]2O[C@H](CO)[C@@H](O)C2(F)F)c(=O)n1 [gemcitabine] ?
Marked response: 1.79

Exam item: Under HCI-010: CTG-3D luminescence at 96 h value of CC(C)(C(=O)NCC(F)(F)C(F)(F)F)C(=O)N[C@@H]1C(=O)Nc2ccccc2-c2ccccc21 ?
Marked response: 1.67

Exam item: Under HCI-010: CTG-3D luminescence at 96 h value of O=C(c1ccc(F)c(F)c1Nc1ccc(I)cc1F)N1CC(O)([C@@H]2CCCCN2)C1 [cobimetinib] ?
Marked response: 1.75

Exam item: Under HCI-010: CTG-3D luminescence at 96 h value of CCN1CCN(Cc2ccc(Nc3ncc(F)c(-c4cc(F)c5nc(C)n(C(C)C)c5c4)n3)nc2)CC1 [abemaciclib] ?
Marked response: 1.83
